GI50 listing for selected molecules.
- Test system: HT-29
- ASSAY_TEXT: NCI tumour cell line growth inhibition, 48 h
Active and inactive are the calls of the source. Cut-off read from the data, not from the text of the source: active = GI50 up to about 1.1 µM and inactive = higher.

// query Recorded GI50 for COC(=O)/C(C#N)=C(\Nc1ccccc1)N1CCCC1 , please?
// result > 100 µM (inactive)

// query Next molecule up: COC(=O)C(/C(=N/NC(N)=S)C(=O)Nc1ccccc1[N+](=O)[O-])c1cnc2ccccc2n1 (centres undefined)
// result > 100 µM (inactive)

// query How about CCOC(=O)C(C)(NC(=O)c1ccc(NCc2ccc3nc(NC(=O)c4ccccc4)nc(NC(=O)c4ccccc4)c3c2)cc1)C(=O)OCC ?
// result 13.3 µM (inactive)

// query What do you get for COC(=O)C12C3C4(C(=O)OC)C1C1(C(=O)OC)C2C3(C(=O)OC)C41C(=O)N(C(C)C)C(C)C (centres undefined) ?
// result > 100 µM (inactive)

// query Same question for Cc1cc(NC(=O)C2C3C=CC(O3)C2C(=O)O)no1 (centres undefined) please.
// result 34.6 µM (inactive)

// query # repeat for O=C(NCCOC(=O)OCCNC(=O)NC1CCCCC1)NC1CCCCC1
// result > 100 µM (inactive)

// query Same thing, different molecule: CCCCCCCCCCCCCCCCOCC(CC(F)(F)P(=O)(O)O)OC(C)=O (centres undefined)
// result > 50 µM (inactive)

// query Try this molecule too: O=c1oc2c3ccc4ccccc4c3n(CCN3CCOCC3)c2c2ccccc12
// result 27.4 µM (inactive)

More entries:
// query Query (molecule): O=C(NCC(C(=O)OCc1ccccc1)C(=O)OCc1ccccc1)OCc1ccccc1 ; field requested: GI50
// result > 100 µM (inactive)

// query Similarly, O=C1NC(=O)C(CCC(=O)c2ccc3ccccc3c2)C(=O)N1 ?
// result > 100 µM (inactive)

// query Also, CC(=O)C1=C(C)N2C(=NC3=C(CCc4ccccc43)C2c2cccc(Br)c2)S1 (centres undefined) please.
// result 22.1 µM (inactive)

// query Item: c1cc2c3c(c1)[C@@H]1O[C@@H]1c1cccc(c1-3)[C@@H]1O[C@H]21
// result 17.7 µM (inactive)

// query How about this molecule: CC(C)(C)OC(=O)NCCCCC1NC(=O)[C@@H]2Cc3c([nH]c4ccccc34)C(C3CCCCC3)N2C1=O (some centres undefined)
// result 28.1 µM (inactive)

// query Now consider COc1ccc(C2(CC(C)C)CCNC2)cc1OC (centres undefined) .
// result 39.1 µM (inactive)

// query What do you get for Brc1ccc(C2CC3(c4ccccc4)ON=C(c4ccccc4)N3c3ccccc3S2)cc1 (centres undefined) ?
// result 9.16 µM (inactive)

// query Do the same for COC(=O)C(Cc1ccccc1)/N=C/c1c(O)c(O)c(C(C)C)c2cc(C)c(-c3c(C)cc4c(C(C)C)c(O)c(O)c(/C=N/C(Cc5ccccc5)C(=O)OC)c4c3O)c(O)c12 (centres undefined) please
// result 17.6 µM (inactive)

// query Queued: COc1cc(/C=N/NC(=O)c2c(Cl)c(Cl)c(Cl)c(Cl)c2-c2nc3ccccc3[nH]2)ccc1O
// result 22.2 µM (inactive)

// query Can you handle CN(C)c1ccc(/C=C(\NC(=O)c2ccccc2)C(=O)Nc2ccccc2C(=O)NN2C(=O)CSC2c2ccc(N(C)C)cc2)cc1 (centres undefined) next?
// result > 100 µM (inactive)

// query Item: CC1=NN(c2nc(N)nc(/C(C#N)=C/c3ccccc3O)n2)C(C)(C)C1
// result 19.8 µM (inactive)

---

- Tested on: 786-0
- ASSAY_TEXT: NCI tumour cell line growth inhibition, 48 h
The source made the active and inactive calls. No stated cut-off is given here; in the data, active = GI50 up to about 1.1 µM and inactive = higher.
ENDPOINT: GI50

// query For the molecule shown here, N=C(N)c1ccc2oc3ccc(C(=N)N)cc3c(=O)c2c1 , give the reported GI50.
// result > 100 µM (inactive)

// query Note, next up: CC1(C)SC2C(NC(=O)C(C(=O)O)c3ccccc3)C(=O)N2C1C(=O)O (stereo unspecified)
// result > 100 µM (inactive)

// query Ok, now CN(C)c1n/c(=N/Cc2cccnc2)ss1
// result > 10 µM (inactive)

// query Cool, now CC(=O)N1NC(c2ccccc2)=NC(=O)C1c1cc(C)c(O)c(C)c1 (stereo unspecified)
// result 17.3 µM (inactive)

---
// query Fill in: GI50 of CC1OC23CCCCC2C(C#N)(C#N)C1(C#N)C(=N)O3 (stereo unspecified) is ___
// result 12.8 µM (inactive)

// query Try this molecule next: O=C(CC(O)(c1ccccc1)c1ccc(Cl)cc1)NC(=O)c1ccccc1O (stereo unspecified)
// result 10.5 µM (inactive)

// query Let us now turn to Cc1ccc(N(C)S(=O)(=O)c2ccc([N+](=O)[O-])cc2)cc1
// result > 100 µM (inactive)

// query Follow-up entry: Cc1ccc(O)c(C2=NNC(c3cccc(Br)c3)C2)c1 (stereo unspecified)
// result > 100 µM (inactive)

---

Recorded GI50, one value per entry.
- Test system: CCRF-CEM
- ASSAY_TEXT: NCI tumour cell line growth inhibition, 48 h
Active and inactive are the calls of the source. Cut-off read from the data, not from the text of the source: active = GI50 up to about 1.1 µM and inactive = higher.

Study these solved cases before continuing.
// query Dear colleague, I am looking for the recorded GI50 of the following compound: CCCCCCCCCCC(O)C1CCC(C(O)CCC(O)C2CCC(CCCCCCC[C@H](O)CC3=C[C@@H](C)OC3=O)O2)O1 (stereo not given in full)
// result 3.48 µM (inactive)

// query What about O=C(OCc1ccccc1)OOC(=O)OCc1ccccc1 ?
// result > 100 µM (inactive)

// query Param item: Cc1cc(C)c2c(=O)n(CC(O)CN(Cc3ccccc3)CC(O)Cn3sc4nc(C)cc(C)c4c3=O)sc2n1 (stereo not given)
// result 6.05 µM (inactive)

// query Moving on to O=C(Nc1ccccc1C(=O)NCc1ccccc1)/C(=C/c1ccccc1O)NC(=O)c1ccccc1
// result > 100 µM (inactive)

Next compound, GI50 to be filled in.
// query What value of GI50 has been recorded for this entry: c1ccc2nc3c(nc2c1)sc1ccccc13
// result 30.9 µM (inactive)

---

Measured GI50 by item
- Test system: SW-620
- ASSAY_TEXT: NCI tumour cell line growth inhibition, 48 h
Activity calls are given as the source filed them. Rule as the data show it: active = GI50 up to about 1.1 µM and inactive = higher.

// query Entry under review: O=C(O)CO/N=C1/C(=C2/C(=O)Nc3ccccc32)Nc2ccccc21 . Reported GI50?
// result 62.5 µM (inactive)

// query Continue with COc1ccc(OCC(=O)O)c(C(=O)CCC(=O)O)c1
// result > 100 µM (inactive)

// query Record: Cc1ccc(S(=O)(=O)N/N=C2\CC3CC4CCC2C4C3)cc1 (stereo unspecified)
// result > 100 µM (inactive)

// query Could you do the same for COc1cc2cnc3c4cc(OC)c(OC(C)C)cc4ccc3c2cc1OC , please?
// result > 100 µM (inactive)

// query Now the compound CCc1cc(CCC(=O)Nc2ccccc2[N+](=O)[O-])nc(S)n1
// result > 100 µM (inactive)

Here is another compound to look at.
// query Item under review: CCOC(=O)c1cc(Br)c(-c2onc(C)c2Br)n1C . Reported GI50?
// result 49.7 µM (inactive)

---

Here's a batch of compounds along with measured GI50 for HCT-15.
State just the number; it will be interpreted in µM.

Worked set:
// query What GI50 appears in the records for this compound with HCT-15? C=C(CS(=O)(=O)c1ccccc1)[P+](c1ccccc1)(c1ccccc1)c1ccccc1
// result 23.6

// query Can you check Cc1cn(CCCCCOC(=O)NC(CCCNC(=N)N)C(=O)O)c(=O)[nH]c1=O (stereo unspecified) next?
// result 28.1

// query Another compound to look at: Cn1c2c(c3ccccc3c1=O)C(=O)c1ccccc1-2
// result 9.79

// query Can you check O=C1C=C/C(=C/[C@H]2SSC=C[C@]23C=CC(=O)C3)C1 next?
// result 14.9

Now turn to the next compound.
// query Query GI50 on HCT-15 for CC1=C2C(=O)c3ccccc3C(=O)[C@H]2C[C@@H](N2CCCC2=O)O1
// result 49.2

---

Overview of recorded GI50 for various compounds
- Tested on: BT-549
- ASSAY_TEXT: NCI tumour cell line growth inhibition, 48 h
Activity calls are given as the source filed them. No stated cut-off is given here; in the data, active = GI50 up to about 1.1 µM and inactive = higher.

// query Requested read-out: GI50. Entry: Cc1ccnc2nc3[nH]c4ccccc4c3cc12
// result 48 µM (inactive)

// query Also need CC/C(Cl)=N\OC(=O)Nc1ccc(F)cc1F , thanks.
// result 2.38 µM (inactive)

// query Here is the next compound: CCOC1OC(CO)C(O)CC1n1ccc(=O)[nH]c1=O (centres undefined)
// result > 100 µM (inactive)

// query Further, for FC(F)=C(c1ccc(-c2ccc(Cl)cc2)cc1)C(F)(F)F ?
// result 18.2 µM (inactive)
